# SUBJECT OF TEST: human TLR8 (Homo sapiens, UniProt Q9NR97)
# Construct: host or cells: HEK-Blue cells (HEK293-derived reporter line)
# Sequence (Q9NR97 27-1041): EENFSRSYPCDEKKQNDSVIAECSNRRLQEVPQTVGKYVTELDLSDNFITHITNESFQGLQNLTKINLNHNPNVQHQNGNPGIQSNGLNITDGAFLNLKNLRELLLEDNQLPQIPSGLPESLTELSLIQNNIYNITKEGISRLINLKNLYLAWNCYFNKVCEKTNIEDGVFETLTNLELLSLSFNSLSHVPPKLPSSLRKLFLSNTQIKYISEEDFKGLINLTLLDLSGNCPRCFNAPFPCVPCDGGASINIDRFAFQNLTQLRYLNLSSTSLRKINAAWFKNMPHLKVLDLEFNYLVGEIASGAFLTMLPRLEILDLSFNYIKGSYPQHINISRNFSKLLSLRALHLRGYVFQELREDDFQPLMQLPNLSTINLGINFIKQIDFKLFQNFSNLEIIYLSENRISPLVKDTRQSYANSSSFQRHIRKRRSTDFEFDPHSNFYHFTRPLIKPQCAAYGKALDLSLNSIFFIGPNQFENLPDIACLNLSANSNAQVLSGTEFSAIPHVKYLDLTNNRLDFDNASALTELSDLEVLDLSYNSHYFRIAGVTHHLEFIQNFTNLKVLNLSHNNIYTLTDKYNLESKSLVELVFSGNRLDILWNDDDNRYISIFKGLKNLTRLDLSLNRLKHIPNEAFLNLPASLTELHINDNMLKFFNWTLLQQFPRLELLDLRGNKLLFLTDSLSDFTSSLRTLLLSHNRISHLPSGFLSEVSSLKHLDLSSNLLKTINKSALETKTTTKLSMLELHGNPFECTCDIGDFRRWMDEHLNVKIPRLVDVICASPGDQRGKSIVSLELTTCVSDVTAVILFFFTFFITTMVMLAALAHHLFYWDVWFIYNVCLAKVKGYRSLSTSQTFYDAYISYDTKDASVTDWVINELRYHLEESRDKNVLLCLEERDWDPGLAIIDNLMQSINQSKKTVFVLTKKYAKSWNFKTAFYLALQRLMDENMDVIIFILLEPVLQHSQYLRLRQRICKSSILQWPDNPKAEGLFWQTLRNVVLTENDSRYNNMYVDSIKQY
# ASSAY NOTES: TLR8 inhibition reporter assay (HEK-Blue cells, SEAP reporter, R848 stimulation)
# Assay type: cell-based
# ASSAY SETUP: HEK-Blue cells overexpressing human TLR8, SEAP reporter, R848 15.9 μM
VALUE KIND: IC50

Worked cases, answers included:
{"COMPOUND": "COc1ncc(CN2CCC(c3ccc4[nH]c(-c5ccnc6[nH]ncc56)c(C(C)C)c4c3)CC2)cn1 [Example 909]", "IC50": "< 100 nM"}
{"COMPOUND": "CC(C)c1c(-c2ccc(Cl)c3[nH]ncc23)[nH]c2ccc(C3CCNCC3)cc12 [Example 106]", "IC50": "100 to 1000 nM"}

Look up and state reported IC50 for CNCCN1CCC(c2ccc3[nH]c(-c4ccnc5[nH]ncc45)c(C(C)C)c3c2)C(F)(F)C1 (stereo not shown) [Example 674]
< 100 nM

Look up and state reported IC50 for CC(C)c1c(-c2ccc3ncc(C#N)n3c2)[nH]c2ccc(C3CCNCC3)cc12 [Example 119]
100 to 1000 nM

Look up and state reported IC50 for Cc1cn2cc(-c3[nH]c4ccc(C5CCN(Cc6c[nH]c(C)n6)CC5)cc4c3C(C)C)ccc2n1 [Example 937]
100 to 1000 nM

Look up and state reported IC50 for Cc1c(-c2ncnn3cccc23)[nH]c2ccc(C3CCN(C4CCN(C(C)C)CC4)CC3)cc12 [Example 806]
< 100 nM

###

Catalogue of IC50 readings, one per entry.
# SUBJECT OF TEST: human TLR8 (Homo sapiens)
# Construct: host or cells: HEK-Blue cells (HEK293-derived reporter line)
# ASSAY NOTES: TLR8 inhibition reporter assay (HEK-Blue cells, SEAP reporter, R848 stimulation)
# Format: cell-based
# ASSAY SETUP: HEK-Blue cells overexpressing human TLR8, SEAP reporter, R848 15.9 μM

{"COMPOUND": "CCc1c(-c2cccc3[nH]ncc23)[nH]c2ccc(C3CCNCC3)cc12 [Example 182]", "ENDPOINT VALUE": "1000 to 50000 nM"}
{"COMPOUND": "CC(C)c1c(-c2cnc3ncnn3c2)[nH]c2ccc(C3CCNCC3)cc12 [Example 170]", "ENDPOINT VALUE": "< 100 nM"}
{"COMPOUND": "Cc1nc[nH]c1CN1CCC(c2ccc3[nH]c(-c4ccnc5[nH]ncc45)c(C(C)C)c3c2)CC1 [Example 864]", "ENDPOINT VALUE": "< 100 nM"}
{"COMPOUND": "CNCC(=O)N1CCC(c2ccc3[nH]c(-c4cc(C(F)(F)F)c5nccn5c4)c(C(C)C)c3c2)CC1 [Example 508]", "ENDPOINT VALUE": "100 to 1000 nM"}
{"COMPOUND": "CCc1c(-c2n[nH]c3ncccc23)[nH]c2ccc(C3CCNCC3)cc12 [Example 244]", "ENDPOINT VALUE": "100 to 1000 nM"}

Look up and state reported IC50 for COc1c(C)c(-c2[nH]c3ccc(C4CCN(C5CCOCC5)CC4)cc3c2C(C)C)nn2ncnc12 [Example 685]
< 100 nM

Look up and state reported IC50 for CN(C)CC(=O)N1CCC(c2ccc3[nH]c(-c4ccn5ccnc5c4)c(CC(F)F)c3c2)CC1 [Example 571]
100 to 1000 nM

###

# SUBJECT OF TEST: human TLR9 (Homo sapiens, UniProt Q9NR96)
# Sequence (Q9NR96 26-1032): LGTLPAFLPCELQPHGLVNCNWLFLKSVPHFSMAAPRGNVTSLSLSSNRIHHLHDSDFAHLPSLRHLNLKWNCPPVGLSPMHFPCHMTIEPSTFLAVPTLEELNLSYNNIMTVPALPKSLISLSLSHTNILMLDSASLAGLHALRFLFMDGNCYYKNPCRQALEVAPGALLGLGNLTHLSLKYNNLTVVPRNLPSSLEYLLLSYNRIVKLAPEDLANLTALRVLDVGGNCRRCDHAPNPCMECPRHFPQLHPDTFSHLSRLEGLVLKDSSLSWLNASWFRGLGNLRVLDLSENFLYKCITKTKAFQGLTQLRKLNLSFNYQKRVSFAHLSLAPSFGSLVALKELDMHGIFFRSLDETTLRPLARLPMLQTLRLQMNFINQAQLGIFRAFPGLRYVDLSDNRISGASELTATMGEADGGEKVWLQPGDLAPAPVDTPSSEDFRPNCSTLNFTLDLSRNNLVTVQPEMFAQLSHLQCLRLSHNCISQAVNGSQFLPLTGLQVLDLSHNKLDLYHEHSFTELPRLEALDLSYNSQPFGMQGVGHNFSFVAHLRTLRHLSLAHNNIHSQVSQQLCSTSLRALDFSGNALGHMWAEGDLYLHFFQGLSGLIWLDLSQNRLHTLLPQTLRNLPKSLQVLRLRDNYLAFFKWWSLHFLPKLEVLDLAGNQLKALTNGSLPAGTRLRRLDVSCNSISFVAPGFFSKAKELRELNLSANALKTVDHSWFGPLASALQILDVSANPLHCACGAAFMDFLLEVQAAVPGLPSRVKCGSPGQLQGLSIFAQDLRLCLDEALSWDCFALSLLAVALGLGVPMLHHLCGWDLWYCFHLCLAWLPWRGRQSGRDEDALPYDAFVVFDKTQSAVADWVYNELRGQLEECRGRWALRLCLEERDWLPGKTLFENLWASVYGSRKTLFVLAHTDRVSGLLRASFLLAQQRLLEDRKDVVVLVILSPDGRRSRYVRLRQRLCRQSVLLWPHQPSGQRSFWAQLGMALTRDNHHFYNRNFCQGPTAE
# ASSAY NOTES: TLR9 inhibition reporter assay (HEK-Blue cells, SEAP reporter, ODN2006 stimulation)
# ASSAY SETUP: HEK-Blue cells overexpressing human TLR9, SEAP reporter, ODN2006 5 nM
pIC50: −log10 of the molar value.
Catalogue of pIC50 readings, one per entry.

Worked cases, answers included:
{"COMPOUND": "Cc1nc2c(-c3[nH]c4ccc(C5CCNCC5)cc4c3C(C)C)ccc(C)n2n1", "SUBJECT OF TEST": "human TLR9 (Homo sapiens, UniProt Q9NR96)", "ENDPOINT VALUE": "6.00 to 7.00"}
{"COMPOUND": "CCc1c(-c2cnnc3[nH]ccc23)[nH]c2ccc(C3CCNCC3)cc12", "SUBJECT OF TEST": "human TLR9 (Homo sapiens, UniProt Q9NR96)", "ENDPOINT VALUE": "4.30 to 6.00"}
{"COMPOUND": "CC(C)c1c(-c2ccnc3[nH]ncc23)[nH]c2ccc(C3CCN(Cc4ccc(N5CCOCC5)cc4)CC3)cc12", "SUBJECT OF TEST": "human TLR9 (Homo sapiens, UniProt Q9NR96)", "ENDPOINT VALUE": "6.00 to 7.00"}
{"COMPOUND": "Cc1c(-c2[nH]c3ccc(C4CCN(C(=O)CCN5CCOCC5)CC4)cc3c2C(C)C)cn2nnnc2c1C", "SUBJECT OF TEST": "human TLR9 (Homo sapiens, UniProt Q9NR96)", "ENDPOINT VALUE": "4.30 to 6.00"}
{"COMPOUND": "CCCN1CCC(c2ccc3[nH]c(-c4cc(C)c5c(c4)ncn5C)c(C(C)C)c3c2)CC1", "SUBJECT OF TEST": "human TLR9 (Homo sapiens, UniProt Q9NR96)", "ENDPOINT VALUE": "6.00 to 7.00"}

Look up and state reported pIC50 for CC(C)c1c(-c2cnc3ccnn3c2)[nH]c2ccc(C3CCNCC3)cc12
4.30 to 6.00

Look up and state reported pIC50 for CCc1c(-c2ccnc3[nH]ncc23)[nH]c2ccc(C3CCNCC3F)cc12 (centres unmarked) [Example 173]
4.30 to 6.00

Look up and state reported pIC50 for CCc1c(-c2cccc3c2cnn3C)[nH]c2ccc(C3CCNCC3)cc12
4.30 to 6.00

Look up and state reported pIC50 for Cc1n[nH]c2nccc(-c3[nH]c4ccc(C5CCNCC5)cc4c3C(C)C)c12
6.00 to 7.00

Look up and state reported pIC50 for CCc1c(-c2ccnc3[nH]ncc23)[nH]c2ccc(C3CCN(Cc4cocn4)CC3)cc12
4.30 to 6.00

###

# SUBJECT OF TEST: human TLR9 (Homo sapiens)
# ASSAY NOTES: TLR9 inhibition reporter assay (HEK-Blue cells, SEAP reporter, ODN2006 stimulation)
# ASSAY SETUP: HEK-Blue cells overexpressing human TLR9, SEAP reporter, ODN2006 5 nM
pIC50: −log10 of the molar value.
VALUE KIND: pIC50

Worked cases, answers included:
{"COMPOUND": "COc1cc(-c2[nH]c3ccc(C4CCNCC4)cc3c2C(C)C)c2ccccc2n1 [Example 105]", "pIC50": "4.30 to 6.00"}
{"COMPOUND": "CCc1c(-c2cnc3c(N)n[nH]c3c2)[nH]c2ccc(C3CCNCC3)cc12 [Example 240]", "pIC50": "4.30 to 6.00"}
{"COMPOUND": "Cc1nc2cc(-c3[nH]c4ccc(C5CCNCC5)cc4c3C(C)C)ccn2n1 [Example 156]", "pIC50": "6.00 to 7.00"}
{"COMPOUND": "Cc1cc(-c2[nH]c3ccc(C4CCN(C5COC5)CC4)cc3c2C(C)C)cn2ccnc12 [Example 719]", "pIC50": "6.00 to 7.00"}
{"COMPOUND": "Cc1c(-c2ccnc3[nH]cc(C)c23)[nH]c2ccc(C3CCNCC3)cc12 [Example 4]", "pIC50": "6.00 to 7.00"}

Look up and state reported pIC50 for CC(C)c1c(-c2ccnc3[nH]ncc23)[nH]c2ccc(C3CCN(C(=O)CCN(C)C)CC3)cc12 [Example 643]
6.00 to 7.00

Look up and state reported pIC50 for CC(C)c1c(-c2cn(C)c3ncccc23)[nH]c2ccc(C3CCN(CCC#N)CC3)cc12 [Example 959]
< 4.30
